Molecular target: human M2 receptor (Homo sapiens)
Conditions: Receptor activity EC50, allosteric potency at EC20 acetylcholine; M2-GIRK1/4 reporter cells; in some cases mean of two or more determinations
# binning rule on EC50: bin 0 = under 10 nM, bin 1 = from 10 nM up to 50 nM, bin 2 = 50 nM and over

# molecule, answerLabel
measured = [
    ("CCC(COC(F)(F)F)NC(=O)c1cn(-c2c(F)cc(F)cc2F)c2nc(N3C[C@@H](O)CC3=O)ccc2c1=O (mixture of isomers) [Example 410]", "bin 0"),
    ("C[C@@H](NC(=O)c1cn(-c2c(F)cc(F)cc2F)c2nc(N3C[C@@H](O)CC3=O)ccc2c1=O)C1CC1", "bin 1"),
    ("CC(C)C[C@H](NC(=O)c1cn(-c2c(F)cc(F)cc2F)c2nc(N3C[C@@H](O)[C@@H](O)C3)ccc2c1=O)C(F)(F)F", "bin 1"),
    ("O=C(Nc1c(Cl)cccc1Cl)c1cn(-c2c(F)cc(F)cc2F)c2nc(N3C[C@@H](O)[C@H](O)C3)ccc2c1=O", "bin 1"),
    ("O=C(NC(c1ccccc1Cl)C(F)(F)F)c1cn(-c2c(F)cc(F)cc2F)c2nc(N3CCNC3=O)ccc2c1=O (racemic) [Example 563]", "bin 1"),
    ("O=C(NC(C1CCC1)C(F)(F)F)c1cn(-c2c(F)cc(F)cc2F)c2nc(N3C[C@@H](O)CC3=O)ccc2c1=O (mixture of isomers) [Example 505]", "bin 0"),
    ("CCC(NC(=O)c1cn(-c2c(F)cc(F)cc2F)c2nc(N3C[C@@H](O)CC3=O)ccc2c1=O)C(F)(F)C(F)(F)F (single isomer, unassigned) [Example 520]", "bin 0"),
    ("O=C(NC1(C(F)(F)F)CCC1)c1cn(-c2c(F)cc(F)cc2F)c2nc(N3C[C@@H](O)CC3=O)ccc2c1=O", "bin 1"),
    ("NC(=O)N1CCN(c2ccc3c(=O)c(C(=O)N[C@H](C4CC4)C(F)(F)F)cn(-c4c(F)cc(F)cc4F)c3n2)CC1", "bin 2"),
    ("CC[C@@H](NC(=O)c1cn(-c2c(Cl)cccc2Cl)c2nc(N3CC4CC4(O)C3)ccc2c1=O)C(F)(F)F (stereo partly drawn)", "bin 2"),
    ("CC[C@H](NC(=O)c1cn(-c2c(F)cc(F)cc2Cl)c2nc(N3CCC(C)C3=O)ccc2c1=O)C(F)(F)F (single isomer, unassigned) [Example 423]", "bin 2"),
    ("O=C(NC(c1ccccc1Cl)C(F)(F)F)c1cn(-c2c(F)cc(F)cc2F)c2nc(N3C[C@@H](O)CC3=O)ccc2c1=O (mixture of isomers) [Example 532]", "bin 1"),
    ("CC(NC(=O)c1cn(-c2c(F)cc(F)cc2F)c2nc(N3C[C@@H](O)CC3=O)ccc2c1=O)(C1CC1)C(F)(F)F (mixture of isomers) [Example 508]", "bin 0"),
    ("CC1CCN(c2ccc3c(=O)c(C(=O)N[C@@H](C)C(F)(F)F)cn(-c4c(F)cc(F)cc4Cl)c3n2)C1=O (mixture of isomers)", "bin 1"),
    ("NC(=O)[C@@H]1CN(c2ccc3c(=O)c(C(=O)N[C@@H](C4CC4)C(F)(F)F)cn(-c4c(F)cc(F)cc4F)c3n2)C(=O)O1", "bin 2"),
    ("CC[C@H](NC(=O)c1cn(-c2c(Cl)cc(F)cc2Cl)c2nc(N3CCNC3=O)ccc2c1=O)C(F)(F)F", "bin 2"),
    ("O=C(N[C@@H](C1CC1)C(F)(F)F)c1cn(-c2c(F)cc(F)cc2F)c2nc(N3CCOC(CO)C3)ccc2c1=O (single isomer, unassigned) [Example 464]", "bin 2"),
    ("O=C(NC(c1ccccc1Cl)C(F)(F)F)c1cn(-c2c(F)cc(F)cc2F)c2nc(N3C[C@@H](O)CC3=O)ccc2c1=O (single isomer, unassigned) [Example 533]", "bin 1"),
    ("CC[C@@H](NC(=O)c1cn(-c2ccc(F)cc2F)c2nc(N3CC(C)NC3=O)ccc2c1=O)C(F)(F)F (single isomer, unassigned) [Example 432]", "bin 1"),
    ("COC(=O)[C@@H]1CN(c2ccc3c(=O)c(C(=O)N[C@@H](C4CC4)C(F)(F)F)cn(-c4c(F)cc(F)cc4F)c3n2)C(=O)O1", "bin 1"),
    ("O=C(N[C@@H](C1CC1)C(F)(F)F)c1cn(-c2c(F)cc(F)cc2F)c2nc(N3CCC[C@H]3CO)ccc2c1=O", "bin 2"),
    ("COC1CN(c2ccc3c(=O)c(C(=O)N[C@@H](C4CC4)C(F)(F)F)cn(-c4c(F)cc(F)cc4F)c3n2)CC1O (mixture of isomers)", "bin 1"),
    ("CCC(NC(=O)c1cn(-c2c(F)cc(F)cc2F)c2nc(N3C[C@@H](O)CC3=O)ccc2c1=O)C(C)C (single isomer, unassigned) [Example 485]", "bin 0"),
]

====

Recorded EC50 for the following molecules
Molecular target: human M2 receptor (Homo sapiens, UniProt P08172)
Sequence (P08172 1-466): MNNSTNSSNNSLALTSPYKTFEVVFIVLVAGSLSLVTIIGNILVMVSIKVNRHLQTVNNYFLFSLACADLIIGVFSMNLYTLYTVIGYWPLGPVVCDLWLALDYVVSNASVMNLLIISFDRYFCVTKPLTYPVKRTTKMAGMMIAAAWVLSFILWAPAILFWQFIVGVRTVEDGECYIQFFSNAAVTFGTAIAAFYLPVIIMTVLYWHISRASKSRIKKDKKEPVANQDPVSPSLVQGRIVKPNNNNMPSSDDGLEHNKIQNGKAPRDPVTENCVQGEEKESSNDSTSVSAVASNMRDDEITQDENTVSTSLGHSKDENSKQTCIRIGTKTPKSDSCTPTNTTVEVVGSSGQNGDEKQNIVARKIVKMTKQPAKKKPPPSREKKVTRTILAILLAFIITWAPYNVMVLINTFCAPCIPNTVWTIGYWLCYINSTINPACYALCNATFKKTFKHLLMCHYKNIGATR
Conditions: Receptor activity EC50, M2-GIRK1/4 activation test, acetylcholine at EC20; allosteric potency; in some cases mean values from two or more determinations
quantityName: EC50 (nM)

# molecule, measurement
measured = [
    ("O=C(NC(c1ccccc1Cl)C(F)(F)F)c1cn(-c2ccc(F)cc2F)c2nc(N3C[C@@H](O)CC3=O)ccc2c1=O (single isomer, unassigned) [Example 212]", 41),
    ("CN(CC(F)F)c1ccc2c(=O)c(C(=O)NC34CC5CC(CC(C5)C3)C4)cn(-c3ccc(F)cc3F)c2n1 [Example 112]", 29),
    ("O=C(NC12CC3CC(CC(C3)C1)C2)c1cn(-c2ccc(F)cc2F)c2nc(N3CCOCC3)ccc2c1=O [Example 136]", 24),
    ("O=C(NC1(C(F)(F)F)CCOC1)c1cn(-c2ccc(F)cc2F)c2nc(N3C[C@@H](O)CC3=O)ccc2c1=O (mixture of isomers) [Example 238]", 1640),
    ("CC[C@@H](NC(=O)c1cn(-c2c(F)cccc2F)c2nc(N3CC4CC4(O)C3)ccc2c1=O)C(F)(F)F (mixture of isomers) [Example 304]", 9),
    ("CC(NC(=O)c1cn(-c2ccc(F)cc2F)c2nc(N3CCCC3=O)ccc2c1=O)C(F)(F)F (stereo not drawn) [Example 179]", 169),
]

====

Biological target: human M2 receptor (Homo sapiens, UniProt P08172)
Format: cell-based
Details: shift of acetylcholine dose-response curve (Allosteric EC50 shift); α >1 = positive cooperativity
Quick rule for you: Cooperativity (alpha factor) at 40 or higher means TRUE, lower means FALSE.

# compound, answerLabel
rows = [
    ("CC(NC(=O)c1cn(-c2c(F)cc(F)cc2F)c2nc(N3C[C@@H](O)[C@H](O)C3)ccc2c1=O)C(F)(F)C(F)(F)F (single isomer, unassigned)", "FALSE"),
    ("O=C(NC(c1ccccc1Cl)C(F)(F)F)c1cn(-c2c(F)cc(F)cc2F)c2nc(N3C[C@@H](O)[C@H](O)C3)ccc2c1=O (single isomer, unassigned) [Example 561]", "TRUE"),
    ("CC(C)C(NC(=O)c1cn(-c2c(F)cc(F)cc2F)c2nc(N3C[C@@H](O)CC3=O)ccc2c1=O)C(C)C", "TRUE"),
    ("CC(C)(NC(=O)c1cn(-c2c(F)cc(F)cc2F)c2nc(N3CC[C@@H](O)C3=O)ccc2c1=O)C(F)(F)F", "TRUE"),
    ("CC[C@H](NC(=O)c1cn(-c2c(F)cc(F)cc2Cl)c2nc(N3C[C@@H](O)CC3=O)ccc2c1=O)C(F)(F)F (single isomer, unassigned) [Example 400]", "FALSE"),
    ("CC(C)C(NC(=O)c1cn(-c2c(F)cc(F)cc2F)c2nc(N3C[C@@H](O)[C@H](O)C3)ccc2c1=O)C(F)(F)F (single isomer, unassigned) [Example 553]", "TRUE"),
    ("CC[C@@H](NC(=O)c1cn(-c2ccc(F)cc2F)c2nc(N3CC(C)NC3=O)ccc2c1=O)C(F)(F)F (single isomer, unassigned)", "FALSE"),
    ("CCC(COC(F)(F)F)NC(=O)c1cn(-c2c(F)cc(F)cc2F)c2nc(N3C[C@@H](O)[C@H](O)C3)ccc2c1=O (single isomer, unassigned)", "FALSE"),
    ("CC[C@H](NC(=O)c1cn(-c2c(F)cc(F)cc2F)c2nc(N3CC(CO)(CO)C3)ccc2c1=O)C(F)(F)F", "FALSE"),
    ("COC(=O)[C@@H]1CN(c2ccc3c(=O)c(C(=O)N[C@@H](C4CC4)C(F)(F)F)cn(-c4c(F)cc(F)cc4F)c3n2)C(=O)O1", "TRUE"),
    ("C[C@H](NC(=O)c1cn(-c2c(F)cc(F)cc2Cl)c2nc(N3C[C@@H](O)CC3=O)ccc2c1=O)C(F)(F)F", "FALSE"),
    ("CC(NC(=O)c1cn(-c2c(F)cc(F)cc2F)c2nc(N3C[C@@H](O)CC3=O)ccc2c1=O)(C1CC1)C(F)(F)F (single isomer, unassigned)", "TRUE"),
    ("C[C@H]1CN(c2ccc3c(=O)c(C(=O)N[C@@H](C4CC4)C(F)(F)F)cn(-c4c(F)cc(F)cc4F)c3n2)C(=O)N1", "FALSE"),
    ("O=C(NC1(C(F)(F)F)CCC1)c1cn(-c2c(F)cc(F)cc2F)c2nc(N3CCNC3=O)ccc2c1=O", "FALSE"),
    ("CC[C@H](NC(=O)c1cn(-c2c(F)cc(F)cc2Cl)c2nc(N3CCC(C)C3=O)ccc2c1=O)C(F)(F)F (mixture of isomers) [Example 422]", "FALSE"),
    ("CC(C)(NC(=O)c1cn(-c2c(F)cc(F)cc2F)c2nc(N3C[C@@H](O)CC3=O)ccc2c1=O)C(F)F", "FALSE"),
    ("CC[C@@H](NC(=O)c1cn(-c2c(F)cc(F)cc2Cl)c2nc(N3C[C@@H](O)CC3=O)ccc2c1=O)C(F)(F)F", "FALSE"),
    ("CC[C@H](NC(=O)c1cn(-c2c(F)cc(F)cc2F)c2nc(N3CC(O)C4(CC4)C3)ccc2c1=O)C(F)(F)F (single isomer, unassigned)", "TRUE"),
    ("CO[C@H]1CCN(c2ccc3c(=O)c(C(=O)N[C@@H](C4CC4)C(F)(F)F)cn(-c4c(F)cc(F)cc4F)c3n2)C1", "FALSE"),
    ("O=C(NC1(C(F)(F)F)CCC1)c1cn(-c2c(F)cc(F)cc2F)c2nc(N3C[C@@H](O)CC3=O)ccc2c1=O", "FALSE"),
    ("O=C(N[C@@H](C1CC1)C(F)(F)F)c1cn(-c2c(F)cc(F)cc2F)c2nc(N3CCCC[C@@H]3CO)ccc2c1=O", "FALSE"),
    ("CC(C)C(NC(=O)c1cn(-c2c(F)cc(F)cc2F)c2nc(N3C[C@@H](O)CC3=O)ccc2c1=O)C(F)(F)F (single isomer, unassigned) [Example 528]", "TRUE"),
    ("O=C(NC12CC(C1)C2)c1cn(-c2c(F)cc(F)cc2Cl)c2nc(N3C[C@@H](O)CC3=O)ccc2c1=O", "FALSE"),
]
